target: Neuronal acetylcholine receptor subunit alpha-7 (Rattus norvegicus, UniProt Q05941); experiment: Agonist activity at rat alpha7 nAChR expressed in rat GH4C1 cells assessed as calcium flux by FLIPR
Sequence (Q05941 whole entry): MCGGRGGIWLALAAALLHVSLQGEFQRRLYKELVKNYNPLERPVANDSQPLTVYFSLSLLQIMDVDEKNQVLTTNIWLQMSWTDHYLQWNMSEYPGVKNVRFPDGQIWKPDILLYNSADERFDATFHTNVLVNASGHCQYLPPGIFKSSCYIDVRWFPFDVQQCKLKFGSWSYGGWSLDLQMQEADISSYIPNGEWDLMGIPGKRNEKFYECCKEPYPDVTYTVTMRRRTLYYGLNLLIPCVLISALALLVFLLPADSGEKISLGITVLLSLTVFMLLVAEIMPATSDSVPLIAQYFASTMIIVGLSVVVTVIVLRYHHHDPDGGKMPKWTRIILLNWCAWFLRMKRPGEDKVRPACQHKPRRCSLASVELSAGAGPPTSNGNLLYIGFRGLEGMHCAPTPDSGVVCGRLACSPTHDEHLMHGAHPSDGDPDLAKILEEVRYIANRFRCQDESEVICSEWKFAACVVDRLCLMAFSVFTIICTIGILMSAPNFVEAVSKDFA
Provide the reported pEC50 of each item.
Numbers only, as −log10 of the molar value.

Some molecules with known pEC50 results, for comparison:
smiles=COc1ccccc1-c1ccc(NC(=O)NCCCCN2CCCCC2)cn1 val=6.64
smiles=O=C(CCCCCN1CCCCC1)Nc1ccc(-c2cccnc2)cc1 val=6.05
smiles=O=C(NCCCCN1CCCCC1)Nc1ccc(-c2ccccc2)cc1 val=6.59

Value sought for every listed molecule: pEC50.
1. O=C(NCCCCN1CCOCC1)Nc1ccc(-c2cccnc2)cc1
2. O=C(NCCCCN1CCCCC1)Nc1ccc(-c2ccc(F)nc2)nc1
3. O=C(NCCCCN1CCCCC1)Nc1ccc(-c2ccc(F)nc2)cc1
4. COc1ccccc1-c1ccc(NC(=O)NCCCCN2CCCCC2)cc1

Result:
6.31
6.28
6.92
6.85

Query: May I ask what pEC50 has been recorded for O=C(CCCCN1CCCCC1)Nc1ccc(-c2cccnc2)cc1 ?
Result: 6.46
